Parameter melting point: see the listing below.

>  <MOLECULE>
Cl.NCCc1nnc(-c2cccc([N+](=O)[O-])c2)[nH]1 [Compound 36]

>  <RESULT>
214 to 216 °C

$$$$
>  <MOLECULE>
Cl.NCCc1nnc(-c2ccc(Cl)cc2)[nH]1 [Compound 28]

>  <RESULT>
239 to 241 °C

$$$$
>  <MOLECULE>
Cc1cc(-c2nnc(CCN)[nH]2)ccc1OCc1ccc(F)cc1.Cl [Compound 48]

>  <RESULT>
182 to 183 °C

$$$$
>  <MOLECULE>
Cl.NCCc1nnc(-c2ccccc2Br)[nH]1 [Compound 29]

>  <RESULT>
194 to 196 °C

$$$$

-- ask What does the record list as melting point for Cl.NCCc1nnc(-c2ccc(C(F)(F)F)cc2)[nH]1 [Compound 15] ?
-- reply 254 to 255 °C

-- ask Entry Cc1ccc(Oc2cccc(-c3nnc(CCN)[nH]3)c2)c(C)c1.Cl.Cl [Compound 52] has what melting point?
-- reply 308 to 310 °C

-- ask What value of measured melting point is listed for Cc1cc(-c2nnc(CCN)[nH]2)ccc1Br.Cl [Compound 12] ?
-- reply 251 to 252 °C

-- ask What melting point value was documented for this molecule, Cc1cc(-c2nnc(CCN)[nH]2)ccc1O.Cl [Compound 57] ?
-- reply 158 to 160 °C

-- ask Recorded melting point of Cl.NCCc1nnc(-c2ccc(F)cc2)[nH]1 [Compound 34] , please.
-- reply 253 to 256 °C

-- ask Can you share its melting point? I mean this molecule: Cl.NCCc1nnc(-c2cccc(Br)c2)[nH]1 [Compound 20]
-- reply 239 to 241 °C

-- ask Which melting point is listed for COc1ccc(-c2nnc(CCN)[nH]2)cc1.Cl [Compound 6] ?
-- reply 248 to 250 °C

-- ask What value of melting point has been reported for the following molecule? Cl.NCCc1nnc(-c2ccc(-c3ccc(F)cc3F)cc2)[nH]1 [Compound 61]
-- reply 251 to 253 °C

-- ask Name the recorded melting point for COc1ccc(-c2ccc(-c3nnc(CCN)[nH]3)cc2)cc1OC.Cl [Compound 64] .
-- reply 199 to 201 °C

-- ask For CCOc1cc(-c2nnc(CCN)[nH]2)cc(OCC)c1OCC.Cl [Compound 32] , what is its reported melting point?
-- reply 253 to 255 °C

----------
MEASUREMENT TARGET: TAAR1 (Homo sapiens, UniProt Q96RJ0)
Sequence (Q96RJ0 whole entry): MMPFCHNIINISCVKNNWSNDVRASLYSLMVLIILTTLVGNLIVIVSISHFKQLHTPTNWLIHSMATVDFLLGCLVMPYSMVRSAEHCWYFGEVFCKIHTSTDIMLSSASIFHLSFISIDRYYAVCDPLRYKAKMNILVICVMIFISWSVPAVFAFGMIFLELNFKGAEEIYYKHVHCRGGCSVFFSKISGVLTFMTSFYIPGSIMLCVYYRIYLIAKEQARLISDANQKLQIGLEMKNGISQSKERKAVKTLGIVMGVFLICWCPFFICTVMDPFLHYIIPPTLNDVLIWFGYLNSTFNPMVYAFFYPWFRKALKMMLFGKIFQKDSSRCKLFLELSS
PROCEDURE TEXT: BRET-based cellular cAMP (EPAC biosensor) assay of TAAR1 agonism in transfected HEK-293 cells
CONDITION SET: TAAR1 activation, BRET assay, HEK-293; mean from 3 assays
METRIC: EC50

>  <SMILES REPRESENTATION>
CN(C)c1cccc(-c2nnc(CCN)[nH]2)c1.Cl

>  <EC50>
inactive

$$$$
>  <SMILES REPRESENTATION>
Cl.NCCc1nnc(-c2ccc(C(F)(F)F)cc2)[nH]1

>  <EC50>
inactive

$$$$
>  <SMILES REPRESENTATION>
Cl.NCCc1nnc(-c2cnccn2)[nH]1

>  <EC50>
inactive

$$$$
>  <SMILES REPRESENTATION>
CCOc1cc(-c2nnc(CCN)[nH]2)cc(OCC)c1OCC.Cl

>  <EC50>
inactive

$$$$

-- ask Bench note: what EC50 did Cl.NCCc1nnc(C(c2ccccc2)c2ccccc2)[nH]1 show?
-- reply inactive

-- ask For COc1cc(OC)cc(-c2nnc(CCN)[nH]2)c1.Cl , what is its reported EC50?
-- reply > 1000 nM

-- ask Reported EC50, molecule Cl.NCCc1nnc(COc2ccccc2)[nH]1 : ____
-- reply inactive

-- ask For Cl.NCCc1nnc(-c2ccc([N+](=O)[O-])cc2)[nH]1 , what is its reported EC50?
-- reply inactive

-- ask If you can, please state the reported EC50 value of Cl.NCCc1nnc(-c2ccccc2[N+](=O)[O-])[nH]1 .
-- reply > 1000 nM
